system: Fer (mouse); experiment: phosphorylation enrichment, bacterial display (enrichment ratio); higher = better substrate or ligand; peptides without Tyr show the background;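 further: 11-residue human phosphosite peptides and single-mutation variants displayed on the E. coli surface, counted by deep sequencing, each peptide's frequency after selection divided by its frequency in the unselected input library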;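 further: frequency after pTyr selection over input frequency; kinase dosed for 20-30% of maximal phosphorylation in three min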
We use 0.5 as the dividing line for phosphorylation enrichment: on or above the line is y, below is n.

{"sequence_record": "GFSRHYEDGFP [CTNND1_Y217_YF]", "class_name": "y"}
{"sequence_record": "EEGESDVCSSD [DCX_Y125_Y125D]", "class_name": "n"}
{"sequence_record": "GLSAPYVKIHL [SYT2_Y309_D307A]", "class_name": "y"}
{"sequence_record": "LKEIRYPPFTD [ALDH3B2_Y362_H361R_YF]", "class_name": "y"}
{"sequence_record": "NNKKDYFDMFE [SLC26A3_Y526_K521N_YF]", "class_name": "n"}
{"sequence_record": "LGRKLYSIATP [ABHD12_Y345_A349T]", "class_name": "y"}
{"sequence_record": "DPLLTYRFPPN [LMNA_Y481_K486N]", "class_name": "n"}

----------
Each record here notes measured phosphorylation enrichment.
system: AncSZ; assay: phosphorylation enrichment, bacterial display (enrichment ratio); higher = better substrate or ligand; peptides without Tyr show the background
attribute_measured: phosphorylation enrichment

{"sequence_record": "LVMFIYAISGM [SCN1A_Y1684_F1687S]", "measured": 1.2}
{"sequence_record": "LGGAMYFLEAD [PKHD1_Y452_E457D_YF]", "measured": 1.01}
{"sequence_record": "DTDSSYCIPTA [GAB1_Y373]", "measured": 1.99}
{"sequence_record": "LKEIHYPPFTD [ALDH3B2_Y362_YF]", "measured": 0.819}
{"sequence_record": "TTKAKYKTPTF [PLD2_Y573_YF]", "measured": 0.417}
{"sequence_record": "MSSLFYANALF [HOXB7_Y6_T9A_YF]", "measured": 0.975}
{"sequence_record": "VGTKRYMASEV [ACVRL1_Y375_P378S]", "measured": 0.564}
{"sequence_record": "CTTIHYNYMFN [TP53_Y234_C238F]", "measured": 1.14}
{"sequence_record": "QKMADYSNKLH [PDPR_Y104_Y109H]", "measured": 0.843}
{"sequence_record": "HKANEYYPVVL [ADAMTS18_Y764]", "measured": 2.86}
{"sequence_record": "KDPPDYKFQPR [SOX9_Y172_H169P_YF]", "measured": 0.811}
{"sequence_record": "CKRQFYLYKGK [RSPO4_Y112]", "measured": 0.836}
{"sequence_record": "SSSNPYSTVTM [ACTN2_Y599]", "measured": 0.62}
{"sequence_record": "GHNDVYISKHV [GRIN2A_Y1423_E1426K]", "measured": 0.373}
{"sequence_record": "TGNGYYFRVFS [MYBPC3_Y1136_I1131T]", "measured": 1.04}
{"sequence_record": "LINPKYSVEEE [PCDH19_Y27_L25P]", "measured": 1.8}
{"sequence_record": "SFPREYGSQEG [RBM10_Y48_YF]", "measured": 0.715}
{"sequence_record": "SLQFEYVHFGG [CDC14A_Y591_S589F_YF]", "measured": 1.25}
{"sequence_record": "PSGPAYRGAVP [ASAH1_Y43_T42A]", "measured": 0.664}
{"sequence_record": "KKYPDYIQSAM [SGMS2_Y59_I62S]", "measured": 0.839}
{"sequence_record": "WHFTFYNELRV [ACTC1_Y93_H90Y_YF]", "measured": 1.42}
{"sequence_record": "FVPSFYHAFSG [ACTN4_Y265_S262P_YF]", "measured": 0.711}
{"sequence_record": "NFRNTYVNANE [KCNH2_Y475_T473N]", "measured": 0.559}
{"sequence_record": "RLMLQYDAVVN [SLC25A32_Y152]", "measured": 1.32}
{"sequence_record": "KQNSLYSFSDH [CCDC82_Y331]", "measured": 1}
{"sequence_record": "DLKFHYDNTAG [KDR_Y1214_P1210L]", "measured": 0.804}
{"sequence_record": "LRSRVYEVPVE [SLC26A3_Y756_N753S]", "measured": 1.01}
{"sequence_record": "ENAGYYFQVSA", "measured": 1.17}
{"sequence_record": "MTKEQYIKMNR [ARFGEF2_Y797]", "measured": 0.595}
